measuredTarget: LSD1 (Homo sapiens)
Construct: made in house
protocolDescription: Biochemical assay for LSD-1 activity (luminescence, H3K4 dimethylated peptide substrate)
condition: average of two or more tests; 30 min preincubation of enzyme and compound; read-out: LSD1 PIC50 MEAN (converted)
property: IC50 (nM)

molecule="O=C(O)c1ccc(CN2CCC(CN[C@@H]3C[C@H]3c3ccccc3)CC2)cc1 [Example 29]" obsvalue=158
molecule="CC(=O)N(CC1CCNCC1)[C@@H]1C[C@H]1c1ccccc1 (relative stereo) [Example 17]" obsvalue=20000
molecule="CC(C)(C)OC(=O)N1CCC(CN[C@H]2C[C@@H]2c2ccccc2)CC1 [Example 3]" obsvalue=631

====

measuredTarget: MAO-B (Homo sapiens, UniProt P27338)
Construct: purchased Gentest-BD Biosciences 456284
Sequence (P27338 1-520): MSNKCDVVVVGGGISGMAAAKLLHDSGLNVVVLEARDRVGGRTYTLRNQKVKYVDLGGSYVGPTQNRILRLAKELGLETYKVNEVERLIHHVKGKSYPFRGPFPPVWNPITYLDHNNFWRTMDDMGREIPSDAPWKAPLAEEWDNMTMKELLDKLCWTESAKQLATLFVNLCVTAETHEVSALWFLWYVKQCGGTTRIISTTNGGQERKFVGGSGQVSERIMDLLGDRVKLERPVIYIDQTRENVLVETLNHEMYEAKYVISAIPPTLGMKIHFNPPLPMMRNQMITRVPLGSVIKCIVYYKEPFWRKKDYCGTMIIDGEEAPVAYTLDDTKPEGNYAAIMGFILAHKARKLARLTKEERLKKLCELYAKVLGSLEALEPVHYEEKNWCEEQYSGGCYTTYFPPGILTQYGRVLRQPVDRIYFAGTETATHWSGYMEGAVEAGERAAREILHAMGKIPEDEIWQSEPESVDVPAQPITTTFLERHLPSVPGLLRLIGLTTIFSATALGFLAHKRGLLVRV
protocolDescription: Biochemical assay for MAO-B activity (FLINT, benzylamine/amplex red)
condition: average of two or more tests; 30 min preincubation of enzyme and compound; read-out: MAOB PIC50 MEAN (converted)
property: log10 IC50 (log10 of the value in µM)

molecule="Fc1ccccc1C[N+]1(Cc2ccccc2F)CCC(CN[C@@H]2C[C@H]2c2ccccc2)CC1 (relative stereo) [Example 35]" property="log10 IC50" obsvalue=1.50
molecule="CC(=O)N(CC1CCNCC1)[C@@H]1C[C@H]1c1ccccc1 (relative stereo) [Example 17]" property="log10 IC50" obsvalue=1.80
molecule="CN1CCC(CN[C@@H]2C[C@H]2c2ccccc2)CC1 (relative stereo) [Example 20]" property="log10 IC50" obsvalue=1.40
molecule="O=C(O)c1ccc(CCN2CCC(CN[C@@H]3C[C@H]3c3ccccc3)CC2)cc1 [Example 123]" property="log10 IC50" obsvalue=1.30
molecule="CN(CCC1CCNCC1)[C@@H]1C[C@H]1c1ccccc1 (relative stereo) [Example 77]" property="log10 IC50" obsvalue=1.50
molecule="OB1OCc2c(CN3CCC(CN[C@@H]4C[C@H]4c4ccccc4)CC3)cccc21 (relative stereo) [Example 55]" property="log10 IC50" obsvalue=0.90
molecule="OCCN1CCC(CN[C@@H]2C[C@H]2c2ccccc2)CC1 (relative stereo) [Example 11]" property="log10 IC50" obsvalue=1.50
molecule="OB(O)c1ccc(CN2CCC(CN[C@@H]3C[C@H]3c3ccccc3)CC2)cc1 (relative stereo) [Example 57]" property="log10 IC50" obsvalue=1.50
molecule="O=C(OCc1ccccc1)N1CCC(CN[C@@H]2C[C@H]2c2ccccc2)CC1 (relative stereo) [Example 18]" property="log10 IC50" obsvalue=-0.20
molecule="c1ccc(C2C[C@@H]2NCC2CNCCO2)cc1 (stereo in doubt) [Example 25]" property="log10 IC50" obsvalue=1.10
molecule="c1ccc([C@@H]2C[C@H]2NCC2CCN(Cc3ccncc3)CC2)cc1 (relative stereo) [Example 33]" property="log10 IC50" obsvalue=1.70
molecule="CC(N[C@H]1CC1c1ccccc1)C1CCNCC1 (stereo in doubt) [Example 24]" property="log10 IC50" obsvalue=1.80
molecule="O=C(O)CCN1CC[C@H](CN[C@@H]2C[C@H]2c2ccccc2)C1 [Example 150]" property="log10 IC50" obsvalue=1.90
molecule="O=C(O)CN1CCC(CN[C@H]2C[C@@H]2c2ccccc2)CC1 (relative stereo) [Example 27]" property="log10 IC50" obsvalue=1.80
molecule="N[C@H]1CC[C@H](CN[C@@H]2C[C@H]2c2ccccc2)CC1 (relative stereo) [Example 10]" property="log10 IC50" obsvalue=0.90
molecule="O=C(O)c1ccc(CN2CC[C@@H](CN[C@@H]3C[C@H]3c3ccccc3)C2)cc1 [Example 28b]" property="log10 IC50" obsvalue=1.40
molecule="CC(C)(C)OC(=O)N1CCCC(CN[C@H]2CC2c2ccccc2)CC1 (stereo in doubt) [Example 21]" property="log10 IC50" obsvalue=1.20
molecule="CS(=O)(=O)c1ccc(CN2CCC(CN[C@@H]3C[C@H]3c3ccccc3)CC2)cc1 (relative stereo) [Example 43]" property="log10 IC50" obsvalue=-0.30
molecule="O=C(c1ccccc1)N1CCC(CN[C@@H]2C[C@H]2c2ccccc2)CC1 (relative stereo) [Example 14]" property="log10 IC50" obsvalue=1.60
molecule="CN(CC1CCNCC1)[C@H]1CC1c1ccccc1 (stereo partly drawn) [Example 19]" property="log10 IC50" obsvalue=1.50
molecule="c1ccc(C2C[C@@H]2NCC2CCCNC2)cc1 (stereo in doubt) [Example 16]" property="log10 IC50" obsvalue=1.60
molecule="O=C(O)c1ccc(CN2CCC(CN[C@@H]3C[C@H]3c3ccccc3)CC2)cc1 [Example 29]" property="log10 IC50" obsvalue=1.40
molecule="O=C(O)CCN1CCC(CN[C@@H]2C[C@H]2c2ccccc2)CC1 [Example 71]" property="log10 IC50" obsvalue=0.90
molecule="CC(=O)N1CCC(CN[C@@H]2C[C@H]2c2ccccc2)CC1 (relative stereo) [Example 15]" property="log10 IC50" obsvalue=1.20
molecule="CC(C)(C)OC(=O)N[C@H]1CC[C@H](CN[C@@H]2C[C@H]2c2ccccc2)CC1 (relative stereo) [Example 9]" property="log10 IC50" obsvalue=-0.40
molecule="O=C(O)c1ccc(CN2CC[C@H](CN[C@@H]3C[C@H]3c3ccccc3)C2)cc1 [Example 28a]" property="log10 IC50" obsvalue=1.50
molecule="O=C(O)c1ccc(CN2CCC(CN[C@H]3C[C@@H]3c3ccccc3)CC2)cc1 (relative stereo) [Example 26]" property="log10 IC50" obsvalue=1.70
